The measurements presented in this section are drawn from ChEMBL document CHEMBL3885881.

Known MEAN CORPUSCULAR VOLUME of a selection of compounds
organism: Rattus norvegicus; experiment: DrugMatrix - Regimen: Daily Repeat; type: toxicity, organism-based, Sprague-Dawley; set-up: regimen Daily Repeat, gender Male, age 6-8 weeks; conditions: in vivo, po, 0 mg/kg, 72 h, tissue Blood, route oral GAVAGE, dose level Control, time 3 day, vehicle .5 % CMC
Write down the numeric answer in fL and omit the unit.

Record excerpt, results attached:
{"compound": "COc1ccc(C2C(=O)c3ccccc3C2=O)cc1", "experimental.value": 59.76}
{"compound": "CN/C(=N/CCSCc1nc[nH]c1C)NC#N", "experimental.value": 64.42}
{"compound": "CC(C(=O)O)c1ccc2oc(-c3ccc(Cl)cc3)nc2c1 (stereo not drawn)", "experimental.value": 64.1}
{"compound": "C[C@H]1O[C@@H](n2cc(F)c(=O)[nH]c2=O)[C@H](O)[C@@H]1O", "experimental.value": 64.42}
{"compound": "O=C1Nc2ccc(Cl)cc2C(c2ccccc2Cl)=NC1O (stereo not drawn)", "experimental.value": 62.48}
{"compound": "Clc1ccccc1CN1CCc2sccc2C1", "experimental.value": 59.76}
{"compound": "Cn1c(=O)c2c(ncn2CC(O)CO)n(C)c1=O (stereo not drawn)", "experimental.value": 63.05}

Quickly give me recorded MEAN CORPUSCULAR VOLUME for NCCCC(O)(P(=O)(O)O)P(=O)(O)O
59.76

###

organism: Rattus norvegicus; experiment: DrugMatrix - Regimen: Daily Repeat; format: toxicity, organism-based, Sprague-Dawley; parameters: regimen Daily Repeat, gender Male, age 6-8 weeks; conditions: in vivo, po, 0 mg/kg, 120 h, tissue Plasma, route oral GAVAGE, dose level Control, time 5 day, […]
experimental.readout: ALBUMIN (G/DL)
Express your answer in G/DL, writing the number without its unit.

{"molecule": "COc1cc(N)c(Cl)cc1C(=O)NC1CCN(CCCOc2ccc(F)cc2)CC1OC (centres undefined) [CISAPRIDE]", "ALBUMIN (G/DL)": 4.12}

Tell us which ALBUMIN value is on record for CC(C)(C)NC(=O)[C@H]1CC[C@H]2[C@@H]3CC[C@H]4NC(=O)C=C[C@]4(C)[C@H]3CC[C@]12C [FINASTERIDE]
4

Return reported ALBUMIN. Input molecule: CO[C@H]1/C=C/O[C@@]2(C)Oc3c(C)c(O)c4c(O)c(c(/C=N/N5CCN(C6CCCC6)CC5)c(O)c4c3C2=O)NC(=O)/C(C)=C\C=C\[C@H](C)[C@H](O)[C@@H](C)[C@@H](O)[C@@H](C)[C@H](OC(C)=O)[C@@H]1C [RIFAPENTINE]
4.17

Give the reported ALBUMIN for this molecule. Clc1ccc(COC(Cn2ccnc2)c2ccc(Cl)cc2Cl)cc1 (centres undefined) [ECONAZOLE]
3.87

###

species: Rattus norvegicus; assay: DrugMatrix - Regimen: Daily Repeat; format: toxicity, organism-based, Sprague-Dawley; set-up: regimen Daily Repeat, gender Male, age 6-8 weeks; conditions: in vivo, po, 0 mg/kg, 120 h, tissue Blood, route oral GAVAGE, dose level Control, time 5 day, vehicle .5 % CMC
# MEAN CORPUSCULAR VOLUME per record follows
Give a bare numeral; the unit fL is implied.

Some solved cases for reference:
{"compound": "COC1=C(OC)C(=O)C(CCCCCCCCCCO)=C(C)C1=O", "experimental.value": 63.67}
{"compound": "NC1CCN(c2nc3c(cc2F)c(=O)c(C(=O)O)cn3-c2ccc(F)cc2F)C1 (stereo unspecified)", "experimental.value": 59.12}
{"compound": "COc1ccc(C2C(=O)c3ccccc3C2=O)cc1", "experimental.value": 59.55}

Tell us which MEAN CORPUSCULAR VOLUME value is on record for Clc1ccccc1CN1CCc2sccc2C1
59.55

Assign MEAN CORPUSCULAR VOLUME to the following record: Cn1c(=O)c2c(ncn2CC(O)CO)n(C)c1=O (stereo unspecified)
62.7

# return recorded MEAN CORPUSCULAR VOLUME for entry C[C@H]1O[C@@H](n2cc(F)c(=O)[nH]c2=O)[C@H](O)[C@@H]1O
63.67

Assign MEAN CORPUSCULAR VOLUME to the following record: CC(=O)Oc1ccc(C(c2ccc(OC(C)=O)cc2)c2ccccn2)cc1
64.47

Return MEAN CORPUSCULAR VOLUME (reported value) for this compound: CN(C)[C@@H]1C(O)=C(C(N)=O)C(=O)[C@@]2(O)C(O)=C3C(=O)c4c(O)ccc(Cl)c4[C@@](C)(O)[C@H]3C[C@@H]12
62.7

Answer with the recorded MEAN CORPUSCULAR VOLUME for the compound listed here: O=C1CN=C(c2ccccc2Cl)c2cc([N+](=O)[O-])ccc2N1
63.67

Indicate its recorded MEAN CORPUSCULAR VOLUME; the compound in question is O=C1Nc2ccc(Cl)cc2C(c2ccccc2Cl)=NC1O (stereo unspecified)
61.53

Using the record for CCN(CC)CCOc1ccc(/C(=C(/Cl)c2ccccc2)c2ccccc2)cc1 , state its measured MEAN CORPUSCULAR VOLUME.
61.92

###

ABSOLUTE SEGMENTED NEUTROPHIL listing for selected compounds.
species on record: Rattus norvegicus; assay: DrugMatrix - Regimen: Daily Repeat; assay type: toxicity, organism-based, Sprague-Dawley; parameters: regimen Daily Repeat, gender Male, age 6-8 weeks; conditions: in vivo, po, 0 mg/kg, 72 h, tissue Blood, route oral GAVAGE, dose level Control, time 3 day, vehicle .5 % CMC
# output: bare number, implied unit CELLS/uL

{"compound": "C[C@H]1O[C@@H](n2cc(F)c(=O)[nH]c2=O)[C@H](O)[C@@H]1O [DOXIFLURIDINE]", "experimental.value": 1192.33}
{"compound": "COC1=C(OC)C(=O)C(CCCCCCCCCCO)=C(C)C1=O [IDEBENONE]", "experimental.value": 1192.33}
{"compound": "CCN(CC)CCOc1ccc(/C(=C(/Cl)c2ccccc2)c2ccccc2)cc1 [ENCLOMIPHENE]", "experimental.value": 1490.83}
{"compound": "CN/C(=N/CCSCc1nc[nH]c1C)NC#N [CIMETIDINE]", "experimental.value": 1192.33}
{"compound": "O=C1C(CC[S+]([O-])c2ccccc2)C(=O)N(c2ccccc2)N1c1ccccc1 (stereo not given) [SULFINPYRAZONE]", "experimental.value": 1121.33}

Consider the compound O=C1CN=C(c2ccccc2Cl)c2cc([N+](=O)[O-])ccc2N1 [CLONAZEPAM] . State its measured ABSOLUTE SEGMENTED NEUTROPHIL.
1192.33

Give the measured ABSOLUTE SEGMENTED NEUTROPHIL for COc1cc2nc(N3CCN(C(=O)c4ccco4)CC3)nc(N)c2cc1OC [PRAZOSIN]
1121.33

Report measured ABSOLUTE SEGMENTED NEUTROPHIL; entry is CN(C)[C@@H]1C(O)=C(C(N)=O)C(=O)[C@@]2(O)C(O)=C3C(=O)c4c(O)ccc(Cl)c4[C@@](C)(O)[C@H]3C[C@@H]12 [CHLORTETRACYCLINE]
1932.67

Item Cn1c(=O)c2c(ncn2CC(O)CO)n(C)c1=O (stereo not given) [DYPHYLLINE] : provide ABSOLUTE SEGMENTED NEUTROPHIL
1932.67

Check the records and state ABSOLUTE SEGMENTED NEUTROPHIL for O=C1Nc2ccc(Cl)cc2C(c2ccccc2Cl)=NC1O (stereo not given) [LORAZEPAM]
1121.33

###

# reported CREATININE; entries follow
species on record: Rattus norvegicus; assay: DrugMatrix - Regimen: Daily Repeat; format: toxicity, organism-based, Sprague-Dawley; parameters: regimen Daily Repeat, gender Male, age 6-8 weeks; conditions: in vivo, po, 0 mg/kg, 72 h, tissue Plasma, route oral GAVAGE, dose level Control, time 3 day, vehicle .5 % CMC
Entry format: amount then unit.

Before answering, review these 7 worked examples.
{"molecule": "COC1=C(OC)C(=O)C(CCCCCCCCCCO)=C(C)C1=O", "experimental.value": "0.18 mg/dL"}
{"molecule": "CN(C)[C@@H]1C(O)=C(C(N)=O)C(=O)[C@@]2(O)C(O)=C3C(=O)c4c(O)ccc(Cl)c4[C@@](C)(O)[C@H]3C[C@@H]12", "experimental.value": "0.19 mg/dL"}
{"molecule": "C[C@H]1O[C@@H](n2cc(F)c(=O)[nH]c2=O)[C@H](O)[C@@H]1O", "experimental.value": "0.18 mg/dL"}
{"molecule": "NC1CCN(c2nc3c(cc2F)c(=O)c(C(=O)O)cn3-c2ccc(F)cc2F)C1 (stereo not drawn)", "experimental.value": "0.48 mg/dL"}
{"molecule": "NCCCC(O)(P(=O)(O)O)P(=O)(O)O", "experimental.value": "0.58 mg/dL"}
{"molecule": "CCN(CC)CCOc1ccc(/C(=C(/Cl)c2ccccc2)c2ccccc2)cc1", "experimental.value": "0.2 mg/dL"}
{"molecule": "COc1ccc(C2C(=O)c3ccccc3C2=O)cc1", "experimental.value": "0.58 mg/dL"}

Note down CREATININE recorded for COc1cc2nc(N3CCN(C(=O)c4ccco4)CC3)nc(N)c2cc1OC
0.18 mg/dL
